Target: T1, APG293 (human CD95L-T4) (human)
T1 chain: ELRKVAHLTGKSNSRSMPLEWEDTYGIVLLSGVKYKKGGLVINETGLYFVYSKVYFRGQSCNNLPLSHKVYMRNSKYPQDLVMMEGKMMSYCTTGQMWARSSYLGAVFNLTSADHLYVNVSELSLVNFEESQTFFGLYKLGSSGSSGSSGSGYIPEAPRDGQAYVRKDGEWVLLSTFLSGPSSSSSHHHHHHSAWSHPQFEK
Test: cell-based or functional assay
For each entry below, report its EC50, Assay 1: antagonism of CD95L-T4-induced apoptosis on Jurkat A3 cells value.

Record excerpt, results attached:
[[record]]
binder = "scFv-minibody SEQ ID 39 (scFv) scFv: EVQLVESGGGLVQPGGSLRLSCAASGFSFSSGYDMCWVRQAPGKGLEWVACIDTDNDATYYADSVKGRFTISKDSSKNTLYLQMNSLRAEDTAVYYCARTHGDYVAFKLWGQGTLVTVSGGGSGGGSGGGSGGGSDIQMTQSPSSLSASVGDRVTITCQSSQSVYKNNDLSWYQQKPGKAPKLLIYQASKLASGVPSRFSGSGSGTDFTLTISSLQPEDFATYYCAGGYTASIYAFGQGTKVEIKGSGSSGQPREPQVYTLPPSREEMTKNQVSLTCLVKGFYPSDIAVEWESQGSPENNYKTTPPVLDSDGSFFLYSKLTVDKSRWQQGNVFSCSVMHEALHNHYTQKSLSLSPGSSSSSSAWSHPQFEK"
result = "0.0994 µg/mL"

[[record]]
binder = "rabbit monoclonal anti-CD95L antibody clone 145-12 (antibody, V domains shown, Rabbit monoclonal IgG from a hybridoma subclone; Only VH and VL are tied to the clone by name; also called mAB145-12; mAb145-12) VH: QSLEESGGDLVKPGASLTLTCTASGFSFSSGYDMCWVRQAPGKGLEWIACIDTDNDATYYASWAKGRFTISKPSSTTVLLQITSLTAADTATYFCATTHGDYVAFKLWGPGTLVTVSS VL: QVLTQTASSVSAAVGGTVTINCQSSQSVYKNNDLSWYQQKPRQPPKLLIYQASKLASGVPSRFKGSGSGTQFTLTIGDLECDDGATYYCAGGYTASIYAFGGGTEVVVKG"
result = "0.187 µg/mL"

[[record]]
binder = "scFv-minibody SEQ ID 37 (scFv) scFv: QSLEESGGDLVKPGASLTLTCTASGFSFSSGYDMCWVRQAPGKGLEWIACIDTDNDATYYASWAKGRFTISKPSSTTVLLQITSLTAADTATYFCATTHGDYVAFKLWGPGTLVTVSGGGSGGGSGGGSGGGSQVLTQTASSVSAAVGGTVTINCQSSQSVYKNNDLSWYQQKPRQPPKLLIYQASKLASGVPSRFKGSGSGTQFTLTIGDLESDDGATYYCAGGYTASIYAFGGGTEVVGSGSSGQPREPQVYTLPPSREEMTKNQVSLTCLVKGFYPSDIAVEWESQGSPENNYKTTPPVLDSDGSFFLYSKLTVDKSRWQQGNVFSCSVMHEALHNHYTQKSLSLSPGSSSSSSAWSHPQFEK"
result = "0.124 µg/mL"


As a next step, examine the binder that follows.
EC50, Assay 1: antagonism of CD95L-T4-induced apoptosis on Jurkat A3 cells measured on APG101 (Fc fusion, UniProt P25445 26-173, looked up, not shown: a dimerising Fc or GST) QVTDINSKGLELRKTVTTVETQNLEGLHHDGQFCHKPCPPGERKARDCTVNGDEPDCVPCQEGKEYTDKAHFSSKCRRCRLCDEGHGLEVEINCTRTQNTKCRCKPNFFCNSTVCEHCDPCTKCEHGIIKECTLTSNTKCKEEGSRSN = 0.774 µg/mL
